test system: parent strain (SAWy518)
Readout kind: Offscreen_24hr
Answer with a bare number; do not write a unit.

Using the record for O=C(O)Cc1cc(I)c(Oc2ccc(O)c(I)c2)c(I)c1 [TIRATRICOL] , report its Offscreen_24hr. 0.8174

Then CCCCCCc1ccc(O)cc1O [HEXYLRESORCINOL] ? 0.822

Now this one: CCC(Cc1c(I)cc(I)c(N)c1I)C(=O)O (stereo not drawn) [IOPANIC ACID] 0.7855

====

system: parent strain (SAWy518)
Counter-ions that a name gives are not always drawn.
Readout kind: Offscreen_18hr
Give the figure by itself; no unit, no explanation.

Find the recorded Offscreen_18hr belonging to CCCCc1oc2ccccc2c1C(=O)c1cc(I)c(OCCN(CC)CC)c(I)c1 [Amiodarone hydrochloride] and report it. 0.3754

Next up: OC(Cn1cncn1)(Cn1cncn1)c1ccc(F)cc1F [FLUCONAZOLE] 0.7681

And what about the compound O=C1c2ccccc2C(=O)c2c(O)c(O)cc(O)c21 [PURPURIN] ? 0.5082

And the next one, Nc1[nH]c(=O)ncc1F [FLUCYTOSINE] ? 0.7196

Try the compound Cc1cc(C(C)(C)CC(C)(C)C)ccc1OCCOCC[N+](C)(C)Cc1ccccc1.[Cl-] [METHYLBENZETHONIUM CHLORIDE] 0.7745

Now this one: CCN(CC)CCOc1ccc(C(=C(Cl)c2ccccc2)c2ccccc2)cc1 [Clomifene citrate] 0.6687

And for COc1cc(C)c2c(=O)c(-c3ccccc3)coc2c1 [METHOXYVONE] ? 0.7685

Can you handle O=C(/C=C/c1ccc(O)cc1)CC(=O)/C=C/c1ccc(O)cc1 [Bisdemethoxycurcumin] next? 0.8025

Next: O=c1cc(-c2ccc(O)cc2)oc2cc(O)cc(O)c12 [Apigenin] 0.7754

Can you check O=C(Nc1cc(C(F)(F)F)cc(C(F)(F)F)c1)c1cc(Cl)ccc1O [IMD 0354] next? 0.1675

Next compound up: O=C([O-])c1ccccc1-c1c2cc(I)c(=O)c(I)c-2oc2c(I)c([O-])c(I)cc12.[Na+].[Na+] [ERYTHROSINE SODIUM] 0.8136

How about C=CCOC(Cn1ccnc1)c1ccc(Cl)cc1Cl.O=S(=O)(O)O (stereo not drawn) [ENILCONAZOLE SULFATE] ? 0.81
